B1: library; a variant is named by its letters at N, in order (parent)
chain: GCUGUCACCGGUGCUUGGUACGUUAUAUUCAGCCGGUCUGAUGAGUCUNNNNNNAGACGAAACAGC

Variants of: B1
Assay: normalized RNA/DNA level without ligand (relative to sTRSVctl = 100) (log10 (% of sTRSVctl)); HEK293T overexpressing SLC46A1; higher = less ribozyme self-cleavage, higher mRNA level
Conditions: without (6R,S)-folinic acid; ligand present: no
Outcome measure: normalized RNA/DNA level without ligand (log10)

> print(dat)
    changes  reported
 1   GUGGUU      2.01
 2   GUGCCG      2.04
 3   AUCCUC       2.1
 4   GCUUGA         2
 5   AAAAGU      1.94
 6   AGAGUG      1.71
 7   UAUUCA      2.02
 8   GGUUAU      1.99
 9   GAGAGG       1.9
10   UAAUAA      1.93
11   UGCACU      2.02
12   GAGCCA      2.02
13   GAAGGA      1.95
14   CUAGAU      1.96
15   CGAGAU      1.96
16   UGUGCU      2.02
17   UACUUA      1.98
18   UCCGGU      2.03
19   UCUAGA      2.05
20   UGAGUG      1.65
21   ACCGUG      1.92
22   UCAUUU      2.02
23   GUUCGG         2
24   CCCGUC      2.05
25   AGUAGU      1.94
26   CGCCUC      2.04
27   AGUAGG       1.9
28   AUAGAA      1.94
29   UAUGAC      1.97
30   CUCUGG      2.04
31   CUAUCC      2.07
32   GACGGA      1.99
33   GGGUAG      1.98
34   GGGGAA         2
35   UAGCAU      1.94
36   ACACAA      1.97
37   UAUUGA      1.91
38   GUGAUG      1.91
39   CGGAGG      1.83
40   GUGGAA      1.92
41   GGUCCA      2.03
42   GGCCAC      2.02
43   CAUAUU      1.98
44   UCGACG      1.87
45   CUAGUG         2
46   UGCAGU      1.91

Numbers sourced from the supplement of paper PMC6757056.
